Protocol summary: Human Plasma Protein Binding (Test B)
Format: in vitro ADME
Applied conditions: fraction unbound (fu)
Recorded endpoint: Test B Human Plasma Protein Binding (% free)

• COc1cc(F)c(O[C@H]2CC[C@@H](C(=O)O)CC2)cc1C(=O)NC1=C(C(=O)Nc2ccc(F)c(C(F)(F)F)c2)CCCC1 [Example 213] = 0.18
• COc1cc(F)c(O[C@H]2CC[C@@](C)(C(=O)O)CC2)cc1C(=O)Nc1c(C)cc(C)cc1C(=O)NCC1(C)CCC1 [Example 211] = 1.4
• CCC1(CNC(=O)[C@H]2[C@@H]3CC[C@@H](C3)[C@H]2NC(=O)c2cc(O[C@H]3CC[C@@](C)(C(=O)O)CC3)c(F)cc2OC)CCC1 [Example 617] = 2.4
